Tested on: MLL-AF9 LSC
METHOD_DESCRIPTION: Triple coculture (LSCs and HSPCs on primary MSCs), leukemia cells
Assay type: cell-based, murine
CONDITION_INFO: Mus musculus, MLL-AF9; murine LSCs in triple coculture with HSPCs on MSCs
PROPERTY_LABEL: IC50 (nM)
Return type: number; implicit unit nM.

MOLECULE	IC50 (nM)
CC1(C)C(C(=O)Nc2ccc(S(=O)(=O)c3ccc(NC(=O)C4C(C)(C)C4(C)C)cc3)cc2)C1(C)C	500

We now examine a further molecule.
MLL-AF9 LSC / IC50 / CCC(C)C(=O)OC1CC(C)C=C2C=CC(C)C(CCC(O)CC(O)CC(=O)O)C21 (centres unmarked) : value?
100

###

Tested on: LSC-enriched leukemia cells (MLL-AF9)
METHOD_DESCRIPTION: Leukemia coculture assay on primary MSC stroma (cobblestoning readout)
Format: cell-based, murine
CONDITION_INFO: Mus musculus, MLL-AF9, statins (acid form), LSCs cocultured on primary MSC stroma; read-out: Leukemia IC50
pIC50: −log10 of the molar value.
PROPERTY_LABEL: pIC50

Recorded pIC50, per entry:
COMPOUND	DATA_VALUE
CCC(C)(C)C(=O)O[C@H]1C[C@@H](C)C=C2C=C[C@H](C)[C@H](CC[C@@H]3C[C@@H](O)CC(=O)O3)[C@H]21 [Simvastatin]	≥ 7.82
CC(C)c1c(C(=O)Nc2ccccc2)c(-c2ccccc2)c(-c2ccc(F)cc2)n1CC[C@@H](O)C[C@@H](O)CC(=O)O [Atorvastatin]	≥ 5.72
CCC(C)C(=O)OC1CC(C)C=C2C=CC(C)C(CCC(O)CC(O)CC(=O)O)C21 (centres unmarked) [Lovastatic acid]	> 6.70

For the compound shown here, COCc1c(C(C)C)nc(C(C)C)c(/C=C/[C@@H](O)C[C@@H](O)CC(=O)O)c1-c1ccc(F)cc1 [Cerivastatin] , give the reported pIC50.
> 8.00

For the compound shown here, CC(C)n1c(/C=C/C(O)CC(O)CC(=O)O)c(-c2ccc(F)cc2)c2ccccc21 (centres unmarked) [Fluvastatin] , give the reported pIC50.
7.55

###

System: normal primary human CD34+ cells
METHOD_DESCRIPTION: Alamar Blue assay for human progenitor cell toxicity
CONDITION_INFO: read-out: Normal Progenitor* IC50; normal human hematopoietic progenitors, 7 days
PROPERTY_LABEL: pIC50
# pIC50: negative log10 of molar concentration; output just the value

For the molecule shown here, Nc1ccn([C@@H]2O[C@H](CO)[C@@H](O)[C@@H]2O)c(=O)n1 , give the reported pIC50.
5.60

###

Test system: human AML cell lines (U937, THP-1, NOMO-1, SKM-1, NB4, and OCI-AML3)
METHOD_DESCRIPTION: AML cell line screen (CellTiter-Glo)
Assay type: cell-based
CONDITION_INFO: Homo sapiens; read-out: IC50 across the AML cell lines
PROPERTY_LABEL: IC50

For the compound shown here, CCC(C)C(=O)OC1CC(C)C=C2C=CC(C)C(CCC(O)CC(O)CC(=O)O)C21 (stereo not shown) , give the reported IC50.
> 10 µM

###

Listed compounds paired with reported IC50
System: LSC-enriched leukemia cells (MLL-AF9)
METHOD_DESCRIPTION: Leukemia coculture assay on primary MSC stroma (cobblestoning readout)
Format: cell-based, murine
CONDITION_INFO: Mus musculus, MLL-AF9, LSCs on primary MSC stroma, 8-point dose; read-out: Leukemia IC50
Return type: number; implicit unit nM.

COMPOUND	IC50 [nM]
C=C1C(=O)O[C@@H]2[C@H]3O[C@]3(C)CC/C=C(\C)CC[C@@H]12 [Parthenolide]	7500

For the compound shown here, CC1(C)C(C(=O)Nc2ccc(S(=O)(=O)c3ccc(NC(=O)C4C(C)(C)C4(C)C)cc3)cc2)C1(C)C , give the reported IC50.
204

###

Listed compounds paired with reported pIC50
Test system: LSC-enriched leukemia cells (MLL-AF9)
METHOD_DESCRIPTION: Leukemia coculture assay on primary MSC stroma (cobblestoning readout)
Type: cell-based, murine
CONDITION_INFO: Mus musculus, MLL-AF9, LSCs on primary MSC stroma, 8-point dose; read-out: Leukemia IC50
pIC50: −log10 of the molar value.

COMPOUND	ASSAY_TARGET	pIC50
CC[n+]1c(/C=C2/C=C(C)CC(C)C2)sc2ccccc21 (stereo not drawn)	LSC-enriched leukemia cells (MLL-AF9)	≥ 8.00
CCC(C)C(=O)OC1CC(C)C=C2C=CC(C)C(CCC(O)CC(O)CC(=O)O)C21 (stereo not drawn)	LSC-enriched leukemia cells (MLL-AF9)	> 6.70

We now examine a further compound.
For the compound shown here, CC[n+]1c(/C=C2\C=C(C)CC(C)(C)C2)oc2ccccc21 , give the reported pIC50.
≥ 8.00

Where do the numbers come from? From patent US20130338092A1.
